Molecular target: Cytochrome P450 2C19 (Homo sapiens)
Assay: Cytochrome P450 Family 2 Subfamily C Member 19 (CYP2C19) small molecule antagonists: luciferase reporter qHTS assay (AID 1671197); also: nearly all actives have a fitted effect of over 65% in size
Conditions: P450-Glo CYP2C19 enzyme, luciferin luminescence, 1 h; series mostly up to 115 µM
Text: National Center for Advancing Translational Sciences [NCATS] U.S. Environmental Protection Agency [EPA] National Institutes of Environmental Health Sciences [NIEHS] National Toxicology Program [NTP] U.S. Food and Drug Administration [FDA] Cytochrome P450 (CYP) enzymes are membrane-bound hemeproteins that play a key role in metabolism of drugs and xenobiotics. […] The luciferin products formed are detected with a luciferin detection reagent, and the amount of light produced is proportional to CYP activity. […]
Records with an inconclusive call do not appear. Activity calls are given as the source filed them. Calls follow the shape of the dose curve; as a rule, active = well fitted inhibition curve with a large enough effect in the repeat runs; inconclusive = weak or mixed curves; inactive = no such curve, though single readings can be large or run the other way.
Permitted responses: Y for active, N for inactive

Example results:
- molecule: "CCCCCCCCCCCCCCCCC(C(=O)O)C(O)(CC(=O)O)C(=O)O (stereo not drawn)"
  test-system: "Cytochrome P450 2C19 (Homo sapiens)"
  assigned-class: "N"
- molecule: "O=C(Nc1ccc([N+](=O)[O-])cc1)Nc1ccc([N+](=O)[O-])cc1 (tested in a mixture with another compound)"
  test-system: "Cytochrome P450 2C19 (Homo sapiens)"
  assigned-class: "N"
- molecule: "Cc1ccc(S(=O)(=O)C(I)I)cc1"
  test-system: "Cytochrome P450 2C19 (Homo sapiens)"
  assigned-class: "Y"
- molecule: "Cc1cccc(C)c1C"
  test-system: "Cytochrome P450 2C19 (Homo sapiens)"
  assigned-class: "N"
- molecule: "CC(=O)Nc1ccc(N=Nc2cc(C)ccc2O)cc1"
  test-system: "Cytochrome P450 2C19 (Homo sapiens)"
  assigned-class: "Y"

[ask] Per the records of this test, what outcome belongs to O=c1[nH]cccc1O ?
[reply] N

[ask] Per the records of this test, what outcome belongs to Nc1c(Br)cc([N+](=O)[O-])cc1Br ?
[reply] Y

[ask] Per the records of this test, what outcome belongs to Cc1cccc2c1ccc1ccccc12 ?
[reply] Y

[ask] Per the records of this test, what outcome belongs to O=C1CCC/C=C\CCCCCCCCCC1 ?
[reply] N

[ask] Per the records of this test, what outcome belongs to C=CC(C)(C)O ?
[reply] N

[ask] Per the records of this test, what outcome belongs to CC(Cc1ccc(O)c(O)c1)C(C)Cc1ccc(O)c(O)c1 (stereo not drawn) ?
[reply] Y

[ask] Per the records of this test, what outcome belongs to CCCCC/C=C\C=C\C(=O)OCC ?
[reply] Y

[ask] Per the records of this test, what outcome belongs to O=C1C=CC(=O)N1c1cccc(N2C(=O)C=CC2=O)c1 ?
[reply] Y
